The reader will find reported IC50 at 48 h values listed item by item below.
ASSAY_TEXT: Cytotoxicity against African green monkey Vero cells assessed as cell growth inhibition after 48 hrs by MTT assay
Type: toxicity, cell-based
CONDITION_LABEL: African green monkey (Chlorocebus sabaeus)

CHEMICAL_STRUCTURE: O=C(N/N=C/c1c(-c2cc3ccccc3oc2=O)[nH]c2ccccc12)c1ccc(Cl)cc1
IC50 at 48 h: > 200 µM
--
CHEMICAL_STRUCTURE: O=C(N/N=C/c1c(-c2cc3ccccc3oc2=O)[nH]c2ccccc12)c1cccc(Br)c1
IC50 at 48 h: > 200 µM
--
CHEMICAL_STRUCTURE: O=C(N/N=C/c1c(-c2cc3ccccc3oc2=O)[nH]c2ccccc12)c1ccccc1
IC50 at 48 h: 121 µM

Next item in the queue.
q: Quick one: IC50 at 48 h for O=C(N/N=C/c1c(-c2cc3ccccc3oc2=O)[nH]c2ccccc12)c1ccccc1Cl ?
a: > 200 µM
